Target: SMARCA2 (Homo sapiens)
Test: MSD SMARCA2 degradation in A549 cell line
Assay type: cell-based
Settings: A549, A549 cells, 24 h
# Dmax values compiled below

compound	assay-endpoint	result
Cc1ncsc1-c1ccc(CNC(=O)[C@@H]2C[C@@H](O)CN2C(=O)[C@@H](NC(=O)C2(F)CC2)C(C)(C)C)c(O[C@H]2CC[C@@H](N3CCC(N4CCC(c5cnc(N6CCc7[nH]c8nnc(-c9ccccc9O)cc8c7[C@@H]6C)nc5)CC4)CC3)CC2)c1 (single isomer, unassigned)	Dmax	70 to 90%

Input line: With SMARCA2 (Homo sapiens) as the test system, provide measured Dmax for this compound: Cc1ncsc1-c1ccc(CNC(=O)[C@@H]2C[C@@H](O)CN2C(=O)C(c2cc(OC[C@H]3CC[C@H](N4CCC(c5cnc(N6CCc7[nH]c8nnc(-c9ccccc9O)cc8c7[C@H]6C)nc5)CC4)CC3)no2)C(C)C)cc1 (single isomer, unassigned)
Output line: > 90%

Input line: For SMARCA2 (Homo sapiens), give the measured Dmax of the entry C#Cc1ccc(CNC(=O)[C@@H]2C[C@@H](O)CN2C(=O)[C@@H](NC(=O)[C@H]2CCC3(CC2)C[C@H](N2CCC(N4CCC(N5CCN6c7cc(-c8ccccc8O)nnc7NC[C@H]6C5)CC4)CC2)C3)C(C)(C)C)c(F)c1 (stereo partly shown)
Output line: > 90%

Input line: Consider the compound Cc1ncsc1-c1ccc(CNC(=O)[C@@H]2C[C@@H](O)CN2C(=O)[C@@H](NC(=O)[C@H]2CC3(CC[C@H](N4CCN(c5ccnc(N6CCc7[nH]c8nnc(-c9ccccc9O)cc8c7[C@H]6C)n5)CC4)CC3)C2)C(C)(C)C)cc1 (stereo partly shown) tested on SMARCA2 (Homo sapiens); state its Dmax.
Output line: > 90%

* * *

Biological target: SMARCA2 (Homo sapiens, UniProt P51531)
Sequence (P51531 whole entry): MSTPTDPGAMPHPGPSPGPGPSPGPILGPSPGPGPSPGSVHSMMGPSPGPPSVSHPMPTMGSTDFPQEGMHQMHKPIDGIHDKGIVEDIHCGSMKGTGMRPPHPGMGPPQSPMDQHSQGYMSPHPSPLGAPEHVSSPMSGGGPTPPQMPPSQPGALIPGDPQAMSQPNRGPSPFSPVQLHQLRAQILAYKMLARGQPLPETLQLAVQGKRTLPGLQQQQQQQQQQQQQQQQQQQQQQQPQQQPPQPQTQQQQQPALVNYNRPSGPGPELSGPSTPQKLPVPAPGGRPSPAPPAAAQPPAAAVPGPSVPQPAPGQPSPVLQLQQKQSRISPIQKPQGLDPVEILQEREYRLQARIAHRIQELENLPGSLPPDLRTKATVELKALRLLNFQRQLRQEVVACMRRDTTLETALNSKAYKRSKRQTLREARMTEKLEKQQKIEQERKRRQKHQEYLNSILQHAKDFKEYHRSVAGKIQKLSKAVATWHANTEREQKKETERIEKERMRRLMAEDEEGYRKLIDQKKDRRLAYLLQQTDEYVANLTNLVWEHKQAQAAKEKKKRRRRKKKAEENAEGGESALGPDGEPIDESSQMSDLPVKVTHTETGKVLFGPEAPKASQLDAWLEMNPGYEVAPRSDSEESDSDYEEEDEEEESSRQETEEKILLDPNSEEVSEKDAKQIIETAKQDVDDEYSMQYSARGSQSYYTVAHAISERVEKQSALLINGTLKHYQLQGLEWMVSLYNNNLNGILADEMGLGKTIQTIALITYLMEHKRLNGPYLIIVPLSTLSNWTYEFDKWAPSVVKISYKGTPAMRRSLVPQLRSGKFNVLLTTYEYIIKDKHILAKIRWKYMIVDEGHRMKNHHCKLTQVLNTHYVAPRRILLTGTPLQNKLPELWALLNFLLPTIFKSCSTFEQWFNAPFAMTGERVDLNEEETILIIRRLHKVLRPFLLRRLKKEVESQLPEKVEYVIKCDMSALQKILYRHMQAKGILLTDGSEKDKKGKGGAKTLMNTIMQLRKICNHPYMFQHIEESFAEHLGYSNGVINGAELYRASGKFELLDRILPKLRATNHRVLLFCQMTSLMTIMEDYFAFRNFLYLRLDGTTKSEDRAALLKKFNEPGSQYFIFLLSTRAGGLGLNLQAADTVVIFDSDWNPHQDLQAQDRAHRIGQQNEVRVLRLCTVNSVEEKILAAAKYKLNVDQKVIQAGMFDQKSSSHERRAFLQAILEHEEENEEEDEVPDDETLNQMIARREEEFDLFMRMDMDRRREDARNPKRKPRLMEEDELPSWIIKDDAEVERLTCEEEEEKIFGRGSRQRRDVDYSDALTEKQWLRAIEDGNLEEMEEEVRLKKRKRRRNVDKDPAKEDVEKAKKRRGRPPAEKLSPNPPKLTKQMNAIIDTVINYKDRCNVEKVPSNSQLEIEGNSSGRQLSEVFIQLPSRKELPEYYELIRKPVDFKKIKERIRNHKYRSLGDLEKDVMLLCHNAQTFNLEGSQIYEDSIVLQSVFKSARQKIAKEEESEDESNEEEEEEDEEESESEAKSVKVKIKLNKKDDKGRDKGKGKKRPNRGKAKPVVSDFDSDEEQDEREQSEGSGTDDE
Assay: SMARCA2 Western blot degradation in MV4-11 cells
Format: cell-based
Parameters: SMARCA2/SMARCA4 protein degradation selectivity in MV4-11 cells; endogenous in cells; host or cells: MV4-11
Details: SMARCA2/4 selectivity, MV4-11 cells
assay-endpoint: Selectivity in MV411

compound	assay-endpoint	result
C#Cc1ccc(CNC(=O)[C@@H]2C[C@@H](O)CN2C(=O)[C@@H](NC(=O)[C@H]2CCC3(CC2)C[C@H](N2CCC(c4cnc(N5CCN6c7cc(-c8ccccc8O)nnc7NC[C@H]6C5)nc4)CC2)C3)C(C)(C)CCO)cc1 (single isomer, unassigned)	Selectivity in MV411	C (C (10-100 fold))
C#Cc1ccc(CNC(=O)[C@@H]2C[C@@H](O)CN2C(=O)[C@@H](NC(=O)[C@H]2CC3(C2)C[C@H](N2CCN(C(=O)CCN4CCN5c6cc(-c7ccccc7O)nnc6NC[C@H]5C4)CC2)C3)C(C)(C)C)cc1 (some centres unmarked) [I-274]	Selectivity in MV411	C (C (10-100 fold))
C#Cc1ccc(CNC(=O)[C@@H]2C[C@@H](O)CN2C(=O)[C@@H](NC(=O)N2CC3(CC(N4CCC(N5CCC(N6CCN7c8cc(-c9ccccc9O)nnc8NC[C@H]7C6)CC5)CC4)C3)C2)C(C)(C)C)cc1	Selectivity in MV411	C (C (10-100 fold))
C#Cc1ccc(CNC(=O)[C@@H]2C[C@@H](O)CN2C(=O)[C@@H](NC(=O)[C@H]2CC3(C2)C[C@H](N2CCC(N4CCC(N5CCN6c7cc(-c8ccccc8O)nnc7NC[C@H]6C5)CC4)CC2)C3)C(C)(C)C)c(Cl)c1 (single isomer, unassigned) [I-230]	Selectivity in MV411	B (B (>100-500 fold))
Cn1nccc1-c1ccc(CNC(=O)[C@@H]2C[C@@H](O)CN2C(=O)[C@@H](NC(=O)[C@H]2CC[C@@H](c3ccc(-c4cnc(N5CCN6c7cc(-c8ccccc8O)nnc7NC[C@H]6C5)nc4)cc3)CC2)C(C)(C)C)cc1 (single isomer, unassigned)	Selectivity in MV411	C (C (10-100 fold))

Input line: Item C#Cc1ccc([C@H](C)NC(=O)[C@@H]2C[C@@H](O)CN2C(=O)[C@@H](NC(=O)[C@H]2CC3(C2)C[C@H](N2CCC(N4CCC(N5CCN6c7cc(-c8ccccc8O)nnc7NC[C@H]6C5)CC4)CC2)C3)C(C)(C)C)cc1 (single isomer, unassigned) [I-213] : provide Selectivity in MV411
Output line: B (B (>100-500 fold))

Input line: Respond only with Selectivity in MV411 recorded for C#Cc1ccc(CNC(=O)[C@@H]2C[C@@H](O)CN2C(=O)[C@@H](NC(=O)N2CCN(C[C@H]3CC[C@H](N4CCC(N5CCc6[nH]c7nnc(-c8ccccc8O)cc7c6[C@H]5C)CC4)CC3)CC2)C(C)(C)C)cc1
Output line: C (C (10-100 fold))
